tested on: S. typhimurium/E. coli reverse mutation, colony counts; test: Bacterial reverse mutation test (aka Ames test) summary data;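 also: His-minus Salmonella and trp-minus E. coli WP2 uvrA pKM101 with or without liver S9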
Results filed as inconclusive are left out. Activity calls are given as the source filed them. No rule for the calls is given here.
Result category, one only: Y = active, N = inactive

Some solved entries appear below for comparison.
• C1CN1c1nc(N2CC2)nc(N2CC2)n1 = Y
• Oc1ccc(C(c2ccc(O)cc2)(C(F)(F)F)C(F)(F)F)cc1 = N
• CCC(C)c1ccccc1O (stereo unspecified) = N
• Oc1cc(Cl)c(Cl)c(Cl)c1 = N
• C1CCCC1 = N

Query: Call for entry CCc1c(Br)c(Br)c(Br)c(Br)c1Br :
Reply: N

Query: Call for entry Cc1ccccc1N=Nc1c(O)ccc2ccccc12 :
Reply: Y

Query: Call for entry C[N+](C)(C)CCO :
Reply: N

Query: Call for entry Cc1cccc2cccnc12 :
Reply: Y

Cited source: PubChem BioAssay AID2202554
